The reported numbers originate from paper PMC4336329.

- System: human ether-à-go-go-related gene (hERG) potassium channel (human);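 further: peak tail current of the secondary pulse compared with the same well before compound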
- Sequence (Q12809 whole entry, looked up): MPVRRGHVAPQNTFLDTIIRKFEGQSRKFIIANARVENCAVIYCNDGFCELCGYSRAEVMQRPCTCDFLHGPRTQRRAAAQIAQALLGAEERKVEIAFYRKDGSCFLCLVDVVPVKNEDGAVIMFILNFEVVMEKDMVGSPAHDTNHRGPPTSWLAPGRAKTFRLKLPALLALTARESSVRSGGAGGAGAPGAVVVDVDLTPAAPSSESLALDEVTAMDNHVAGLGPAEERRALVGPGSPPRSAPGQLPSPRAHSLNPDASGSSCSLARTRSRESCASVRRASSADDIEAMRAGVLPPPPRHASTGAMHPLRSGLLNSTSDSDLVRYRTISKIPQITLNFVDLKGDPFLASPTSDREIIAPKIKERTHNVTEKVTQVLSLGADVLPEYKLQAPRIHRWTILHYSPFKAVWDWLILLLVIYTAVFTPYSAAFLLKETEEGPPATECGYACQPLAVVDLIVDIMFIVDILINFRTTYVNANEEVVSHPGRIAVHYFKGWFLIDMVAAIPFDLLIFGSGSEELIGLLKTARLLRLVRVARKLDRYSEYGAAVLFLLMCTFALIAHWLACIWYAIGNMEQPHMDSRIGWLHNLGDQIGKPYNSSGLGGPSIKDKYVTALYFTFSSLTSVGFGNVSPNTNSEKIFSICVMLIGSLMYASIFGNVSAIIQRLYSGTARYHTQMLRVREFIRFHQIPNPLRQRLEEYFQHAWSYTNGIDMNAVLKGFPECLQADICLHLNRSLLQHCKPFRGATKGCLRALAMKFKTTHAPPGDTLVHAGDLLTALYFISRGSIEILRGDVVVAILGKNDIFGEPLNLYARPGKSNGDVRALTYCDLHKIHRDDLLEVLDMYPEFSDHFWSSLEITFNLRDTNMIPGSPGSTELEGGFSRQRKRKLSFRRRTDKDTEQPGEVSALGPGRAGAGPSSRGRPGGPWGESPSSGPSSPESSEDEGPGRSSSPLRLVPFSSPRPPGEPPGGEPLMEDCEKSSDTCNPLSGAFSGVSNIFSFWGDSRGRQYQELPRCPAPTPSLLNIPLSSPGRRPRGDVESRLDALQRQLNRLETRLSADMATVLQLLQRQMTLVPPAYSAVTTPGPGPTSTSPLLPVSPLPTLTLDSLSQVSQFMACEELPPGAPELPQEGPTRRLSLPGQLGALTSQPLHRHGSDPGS
- Protocol: primary screen, population patch clamp on CHO cells stably expressing hERG; higher = less effect of the substance
Out of some 310,000 compounds screened, about 14,000 (4.5%) showed an effect of 50% or more. The effect is printed as a negative number. The list comes from a sample in which strong results are over-represented; it also holds close analogues and randomly drawn compounds.
Readout label: hERG current change (%, negative = inhibition) at 10uM (%)

{"Molecule": "O=S(=O)(Nc1cccc2ccccc12)c1cccc2nonc12", "Unit tag": "%", "Value observed": 3.98}
{"Molecule": "COc1ccccc1C(CC(=O)Nc1ccc(C)c(C)c1)c1ccc(OC(C)C)cc1 (stereo not shown)", "Unit tag": "%", "Value observed": 10.2}
{"Molecule": "Cc1ccc(C)c(CN2CCC(CNC(=O)Nc3ccc(C)c(F)c3)CC2)c1", "Unit tag": "%", "Value observed": -27.5}
{"Molecule": "CCOc1ccccc1NC(=O)Nc1ccc(OC)nc1", "Unit tag": "%", "Value observed": 14.7}
{"Molecule": "CCc1noc(C)c1C(=O)OCC(=O)NC(=O)c1ccccc1OC", "Unit tag": "%", "Value observed": 12.5}
{"Molecule": "CSc1nc(SC)c2c3c(oc2n1)COC(C)(C)C3", "Unit tag": "%", "Value observed": 7.86}
{"Molecule": "COc1ccc(C(CCNCc2ccc(N(C)C)cc2)C(C)C)cc1 (stereo not shown)", "Unit tag": "%", "Value observed": -40.5}
{"Molecule": "COC(=O)C1=C(N)Oc2cc(C)n(Cc3ccncc3)c(=O)c2C1c1cccnc1 (stereo not shown)", "Unit tag": "%", "Value observed": -14.8}
{"Molecule": "O=C(/C=C/c1cccc([N+](=O)[O-])c1)NCc1ccco1", "Unit tag": "%", "Value observed": -33}
{"Molecule": "Cc1ccccc1NS(=O)(=O)c1cccc2nonc12", "Unit tag": "%", "Value observed": 2.34}
{"Molecule": "Cc1ccc(C)c(CN2CCC(CNC(=O)Nc3ccc(Br)cc3F)CC2)c1", "Unit tag": "%", "Value observed": -73.4}
{"Molecule": "COc1ccc(C(CCNCc2ccc(N(C)C)cc2)c2ccccc2)cc1 (stereo not shown)", "Unit tag": "%", "Value observed": -72.2}
{"Molecule": "N#CCC(=O)Nc1ccc(C(=O)OCC(=O)c2ccc3c(c2)OCCO3)cc1", "Unit tag": "%", "Value observed": 10.5}
{"Molecule": "O=C(NCC1CCN(Cc2ccccc2F)CC1)Nc1cccc(Br)c1", "Unit tag": "%", "Value observed": -43.2}
{"Molecule": "COc1ccc(CNCCC(c2ccc(OC(C)C)cc2)c2ccccc2OC)cc1 (stereo not shown)", "Unit tag": "%", "Value observed": -66.1}
{"Molecule": "CCN(CC(=O)Nc1ccccc1OC)C(=O)c1cc(-c2ccccc2)nn1-c1ccccc1", "Unit tag": "%", "Value observed": -36.9}

---

- System: human ether-à-go-go-related gene (hERG) potassium channel (human);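 further: peak tail current of the secondary pulse compared with the same well before compound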
- Protocol: primary screen, population patch clamp on CHO cells stably expressing hERG; higher = less effect of the substance
Screen size: about 310,000 compounds; about 14,000 (4.5%) showed an effect of 50% or more. The effect is printed as a negative number. The sample holds strong results, similar compounds and a random draw of the others, so the mix is not that of the screen.
Reported hERG current change (%, negative = inhibition) at 10uM values for the following compounds.
Readout label: hERG current change (%, negative = inhibition) at 10uM (%)

{"Compound": "CCc1ccccc1NC(=S)N(CCCN1CCN(C)CC1)Cc1cccs1", "System": "human ether-à-go-go-related gene (hERG) potassium channel (human)", "Unit tag": "%", "Value observed": -46}
{"Compound": "COC(=O)Cn1cnc2sc(C)c(S(=O)(=O)N3CCN(c4ccccc4OC)CC3)c2c1=O", "System": "human ether-à-go-go-related gene (hERG) potassium channel (human)", "Unit tag": "%", "Value observed": -5.55}
{"Compound": "O=C(Nc1nnc(-c2ccc(Cl)cc2)o1)c1cccc(N2C(=O)CCC2=O)c1", "System": "human ether-à-go-go-related gene (hERG) potassium channel (human)", "Unit tag": "%", "Value observed": 12.2}
{"Compound": "CCN(CC)C(=O)CSc1nnnn1-c1ccc(F)c(Cl)c1", "System": "human ether-à-go-go-related gene (hERG) potassium channel (human)", "Unit tag": "%", "Value observed": -3.28}
{"Compound": "Cc1cc(S(=O)(=O)NCC(C)C)ccc1OCC(=O)NCc1ccco1", "System": "human ether-à-go-go-related gene (hERG) potassium channel (human)", "Unit tag": "%", "Value observed": -73.4}
{"Compound": "CCCn1nnnc1NCc1ccc(C(C)C)cc1", "System": "human ether-à-go-go-related gene (hERG) potassium channel (human)", "Unit tag": "%", "Value observed": 4.94}
{"Compound": "C/C(=N/NC(N)=S)c1ccc(Br)s1", "System": "human ether-à-go-go-related gene (hERG) potassium channel (human)", "Unit tag": "%", "Value observed": 16.8}
{"Compound": "Oc1ccc(-c2nnc(Nc3cccc(O)c3)c3ccccc23)cc1", "System": "human ether-à-go-go-related gene (hERG) potassium channel (human)", "Unit tag": "%", "Value observed": -7.99}
{"Compound": "Cc1c(Cl)cccc1NC(=S)N(CCCN1CCOCC1)Cc1cccs1", "System": "human ether-à-go-go-related gene (hERG) potassium channel (human)", "Unit tag": "%", "Value observed": -26.5}
{"Compound": "CCCCN(CCCC)Cc1cc2ccccc2c2c1COC2", "System": "human ether-à-go-go-related gene (hERG) potassium channel (human)", "Unit tag": "%", "Value observed": -54.6}
{"Compound": "COc1ccc(-c2cc(C(F)(F)F)nc(N3CCOCC3)n2)cc1", "System": "human ether-à-go-go-related gene (hERG) potassium channel (human)", "Unit tag": "%", "Value observed": 18.9}
{"Compound": "N/C(=N\\OC(=O)c1ccc(F)cc1)c1ccc(Br)cc1", "System": "human ether-à-go-go-related gene (hERG) potassium channel (human)", "Unit tag": "%", "Value observed": 15.4}
{"Compound": "CC(=O)Nc1ccc(S(=O)(=O)N2CCN(S(=O)(=O)N3CCCCCC3)CC2)cc1", "System": "human ether-à-go-go-related gene (hERG) potassium channel (human)", "Unit tag": "%", "Value observed": 8.41}
{"Compound": "Oc1ccc(-c2nnc(Nc3ccccc3)c3ccccc23)cc1", "System": "human ether-à-go-go-related gene (hERG) potassium channel (human)", "Unit tag": "%", "Value observed": -58.9}
{"Compound": "COc1ccc(C)cc1Cn1nnc2ccccc21", "System": "human ether-à-go-go-related gene (hERG) potassium channel (human)", "Unit tag": "%", "Value observed": -4.34}
{"Compound": "CC(=O)c1nc2ccccc2n1S(=O)(=O)c1ccc(C)cc1", "System": "human ether-à-go-go-related gene (hERG) potassium channel (human)", "Unit tag": "%", "Value observed": 17.3}
{"Compound": "COc1ccc(-c2c3c(=O)n(C)c(=O)n(C)c3cn2-c2ccccc2O)cc1", "System": "human ether-à-go-go-related gene (hERG) potassium channel (human)", "Unit tag": "%", "Value observed": -9.54}
{"Compound": "Cc1ccc(OC(=O)CCS(=O)(=O)c2ccc(C)cc2)cc1", "System": "human ether-à-go-go-related gene (hERG) potassium channel (human)", "Unit tag": "%", "Value observed": -24.4}
{"Compound": "CC(=O)Nc1ccc(NC(=O)CC2SC(=O)N(CC(=O)c3ccccc3)C2=O)cc1 (stereo not drawn)", "System": "human ether-à-go-go-related gene (hERG) potassium channel (human)", "Unit tag": "%", "Value observed": 7.25}
{"Compound": "Br.CC(C)(C)C(=O)Cn1c(NCCCO)nc2ccccc21", "System": "human ether-à-go-go-related gene (hERG) potassium channel (human)", "Unit tag": "%", "Value observed": -7.81}
{"Compound": "Cc1ccc(-c2nnc(Nc3ccc4c(c3)nc(C)n4C)c3ccccc23)cc1", "System": "human ether-à-go-go-related gene (hERG) potassium channel (human)", "Unit tag": "%", "Value observed": 5.03}
{"Compound": "CCOC(=O)Cn1c(-c2ccc(OC)cc2)c(-c2ccc(OC)cc2)nnc1=O", "System": "human ether-à-go-go-related gene (hERG) potassium channel (human)", "Unit tag": "%", "Value observed": 9.79}
{"Compound": "Cc1ccc(C2=NN(C(=O)c3cccs3)C(c3ccccc3O)C2)cc1 (stereo not drawn)", "System": "human ether-à-go-go-related gene (hERG) potassium channel (human)", "Unit tag": "%", "Value observed": 34}
{"Compound": "O=C(CSc1nc2[nH]ncc2c(=O)[nH]1)Nc1cccc([N+](=O)[O-])c1", "System": "human ether-à-go-go-related gene (hERG) potassium channel (human)", "Unit tag": "%", "Value observed": -19.2}
{"Compound": "COc1cccc(C(=O)NCc2ccc3c(c2)cc(C)n3C)c1", "System": "human ether-à-go-go-related gene (hERG) potassium channel (human)", "Unit tag": "%", "Value observed": 17}
{"Compound": "Cc1[nH]c2ccccc2c1C(=O)NS(=O)(=O)Nc1ccccc1", "System": "human ether-à-go-go-related gene (hERG) potassium channel (human)", "Unit tag": "%", "Value observed": 9.15}
{"Compound": "CSc1ccc(S(=O)(=O)NCC(=O)OCC(=O)NCc2cccs2)cc1[N+](=O)[O-]", "System": "human ether-à-go-go-related gene (hERG) potassium channel (human)", "Unit tag": "%", "Value observed": -44.5}
{"Compound": "CN1C(=O)c2ccc(C(=O)Nc3ccc(Br)cn3)cc2C1=O", "System": "human ether-à-go-go-related gene (hERG) potassium channel (human)", "Unit tag": "%", "Value observed": 7.17}
{"Compound": "COc1ccc(N2CC(C(=O)Nc3c4c(nn3-c3ccc(OC)cc3)CS(=O)(=O)C4)CC2=O)cc1 (stereo not drawn)", "System": "human ether-à-go-go-related gene (hERG) potassium channel (human)", "Unit tag": "%", "Value observed": 21.4}
{"Compound": "O=C1CCC(C(=O)NCCN2C(=O)S/C(=C\\c3cccnc3)C2=O)=NN1", "System": "human ether-à-go-go-related gene (hERG) potassium channel (human)", "Unit tag": "%", "Value observed": 2.26}
